Task for the reader: assign each of the following molecules its reported IC50.
target: recombinant human DAO (diamine oxidase) (Homo sapiens); construct: purchased R&D systems; assay: Activity evaluation on recombinant human DAO (Amplex Red/HRP-coupled assay, 1 mM putrescine substrate); type: biochemical; conditions: 1 mM putrescine, read-out: Inhibitory Activity (IC50, nM) DAO
Counter-ions that a name gives are not always drawn.
Numbers only, in nM.

The examples below pair each entry with its known result.
| molecule | numeric-readout |
| --- | --- |
| NCC(Cn1ncn(Cc2ccc(-c3ccc(C(=O)N4CCOCC4)cc3)s2)c1=O)=C(F)F [Example 109] | 84000 |
| NCC(Cn1ncn(-c2cccc(-c3ccc(C(F)(F)F)nc3)c2)c1=O)=C(F)F [Example 19, Trifluoroacetate] | 240 |
| CN(C)c1ccc(-c2ccc(-n3cnn(CC(CN)=C(F)F)c3=O)c(F)c2)cn1 [Example 34, Trifluoroacetate] | 250 |
| COCCNc1ncc(-c2ccc(Cn3cnn(CC(CN)=C(F)F)c3=O)s2)cn1 [Example 118, Trifluoroacetate] | 40000 |
| CCn1cc(-c2cccc(-n3cnn(CC(CN)=C(F)F)c3=O)n2)cn1 [Example 53, Trifluoroacetate] | 1710 |
| Cc1cc(Br)ncc1-n1cnn(CC(CN)=C(F)F)c1=O [Example 12, Trifluoroacetate] | 55000 |
| NCC(Cn1ncn(-c2ccc(-c3ccc(N4CCNCC4)cc3)c(F)c2)c1=O)=C(F)F [Example 25, Ditrifluoroacetate] | 1300 |
| NCC(Cn1ncn(-c2cccc(Br)n2)c1=O)=C(F)F [Example 8, Trifluoroacetate] | 10500 |
| CN(C)c1ccc(-c2cnc(-n3cnn(CC(CN)=C(F)F)c3=O)cn2)cn1 [Example 92, Trifluoroacetate] | 8 |
| Cc1cc(-c2ccc(S(C)(=O)=O)cc2)sc1Cn1cnn(CC(CN)=C(F)F)c1=O [Example 154, Trifluoroacetate] | 21000 |

Next, consider the following molecule.
Qu. Could you please provide reported IC50 for CCn1cc(-c2cccc(-n3cnn(CC(CN)=C(F)F)c3=O)c2)cn1 [Example 23, Trifluoroacetate] ? Thanks!
Ans. 8400

###

molecular target: recombinant human MAO-B (monoamine oxidase-B) (Homo sapiens); construct: purchased Sigma-Aldrich; experiment: Activity evaluation on recombinant human MAO-B (Amplex Red/HRP-coupled assay, 1 mM benzylamine substrate); type: biochemical; conditions: 1 mM benzylamine, read-out: Inhibitory Activity (IC50, nM) MAO-B
Counter-ions that a name gives are not always drawn.
test-readout: IC50 (nM)
One number for each entry, in nM.

| molecule | measured-target | IC50 / nM |
| --- | --- | --- |
| NCC(Cn1ncn(Cc2ccc(-c3ccc4c(c3)NC(=O)CO4)s2)c1=O)=C(F)F [Example 141, Trifluoroacetate] | recombinant human MAO-B (monoamine oxidase-B) (Homo sapiens) | 20000 |

For the 8 molecules below, give their IC50 values.
1. NCC(Cn1ncn(-c2cnc(Br)cn2)c1=O)=C(F)F [Example 16, Trifluoroacetate]
2. CCn1cc(-c2csc(Cn3cnn(CC(CN)=C(F)F)c3=O)c2)cn1 [Example 153, Trifluoroacetate]
3. NCC(Cn1ncn(-c2ccc(-c3ccc4c(c3)OCO4)cc2F)c1=O)=C(F)F [Example 35, Trifluoroacetate]
4. NCC(Cn1ncn(-c2ncc(-c3ccc(C(F)(F)F)nc3)cc2F)c1=O)=C(F)F [Example 84, Trifluoroacetate]
5. CN(C)c1ccc(-c2ccc(-n3cnn(CC(CN)=C(F)F)c3=O)cn2)cn1 [Example 41, Trifluoroacetate]
6. CS(=O)(=O)c1ccc(-c2cc(-n3cnn(CC(CN)=C(F)F)c3=O)ccn2)cc1 [Example 61, Trifluoroacetate]
7. Cn1cc(C#Cc2cccc(-n3cnn(CC(CN)=C(F)F)c3=O)n2)cn1 [Example 160, trifluoroacetate]
8. NCC(Cn1ncn(-c2ccc(Br)nc2)c1=O)=C(F)F [Example 7, Trifluoroacetate]

Ans.
[38000, 29000, 33, 900, 470, 14000, 15600, 6100]

###

biological target: recombinant human VAP-1 (Homo sapiens, UniProt Q16853); construct: purchased R&D systems; experiment: Activity evaluation on recombinant human VAP-1 (Amplex Red/HRP-coupled hydrogen peroxide assay, benzylamine substrate); type: biochemical; settings: recombinant human VAP-1; 30 min preincubation at 37° C.; 1 mM benzylamine; read-out: Inhibitory Activity (IC50, nM) human VAP-1
Sequence (Q16853 whole entry): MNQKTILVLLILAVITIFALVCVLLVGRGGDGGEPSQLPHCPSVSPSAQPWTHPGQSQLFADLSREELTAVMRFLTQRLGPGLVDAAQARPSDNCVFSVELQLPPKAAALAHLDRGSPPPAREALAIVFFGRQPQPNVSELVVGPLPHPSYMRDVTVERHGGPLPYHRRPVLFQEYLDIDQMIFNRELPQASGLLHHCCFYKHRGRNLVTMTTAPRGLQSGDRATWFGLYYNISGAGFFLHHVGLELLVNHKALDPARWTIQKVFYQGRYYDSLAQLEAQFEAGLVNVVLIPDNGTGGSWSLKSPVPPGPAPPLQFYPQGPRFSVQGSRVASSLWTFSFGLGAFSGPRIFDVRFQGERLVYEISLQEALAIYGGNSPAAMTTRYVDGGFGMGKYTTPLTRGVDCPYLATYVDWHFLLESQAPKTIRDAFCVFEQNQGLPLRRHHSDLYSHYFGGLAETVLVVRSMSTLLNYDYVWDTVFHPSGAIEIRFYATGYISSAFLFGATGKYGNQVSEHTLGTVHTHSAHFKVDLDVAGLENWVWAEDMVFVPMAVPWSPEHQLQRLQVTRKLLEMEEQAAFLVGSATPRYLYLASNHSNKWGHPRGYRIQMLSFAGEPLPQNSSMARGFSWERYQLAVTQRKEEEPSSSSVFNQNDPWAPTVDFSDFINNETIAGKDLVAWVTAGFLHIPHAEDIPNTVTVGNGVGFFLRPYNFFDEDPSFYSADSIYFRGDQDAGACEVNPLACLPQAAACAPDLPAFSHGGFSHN
Counter-ions that a name gives are not always drawn.
test-readout: IC50

Sample records with IC50:
| compound | measured-target | result |
| --- | --- | --- |
| NCC(Cn1ncn(-c2ccc(-c3ccc(N4CCNCC4)cc3)c(F)c2)c1=O)=C(F)F [Example 25, Ditrifluoroacetate] | recombinant human VAP-1 (Homo sapiens, UniProt Q16853) | 1.7 nM |
| NCC(Cn1ncn(CCc2ccc(-c3ccc(N4CCNCC4)cc3)s2)c1=O)=C(F)F [Example 174, Ditrifluoroacetate] | recombinant human VAP-1 (Homo sapiens, UniProt Q16853) | 1.3 nM |
| Cc1cc(-c2cc(C)c3c(c2)CCC(=O)N3)cnc1-n1cnn(CC(CN)=C(F)F)c1=O [Example 73, Trifluoroacetate] | recombinant human VAP-1 (Homo sapiens, UniProt Q16853) | 0.3 nM |

Qu. Identify the reported IC50 for the following entry. Cn1cc(C#Cc2ccc(Cn3cnn(CC(CN)=C(F)F)c3=O)s2)cn1 [Example 171, Trifluoroacetate]
Ans. 1.8 nM

###

Would you mind telling me the reported IC50 of each entry?
molecular target: recombinant human DAO (diamine oxidase) (Homo sapiens, UniProt P19801); construct: purchased R&D systems; test: Activity evaluation on recombinant human DAO (Amplex Red/HRP-coupled assay, 1 mM putrescine substrate); type: biochemical; conditions: 1 mM putrescine, read-out: Inhibitory Activity (IC50, nM) DAO
Sequence (P19801 20-751): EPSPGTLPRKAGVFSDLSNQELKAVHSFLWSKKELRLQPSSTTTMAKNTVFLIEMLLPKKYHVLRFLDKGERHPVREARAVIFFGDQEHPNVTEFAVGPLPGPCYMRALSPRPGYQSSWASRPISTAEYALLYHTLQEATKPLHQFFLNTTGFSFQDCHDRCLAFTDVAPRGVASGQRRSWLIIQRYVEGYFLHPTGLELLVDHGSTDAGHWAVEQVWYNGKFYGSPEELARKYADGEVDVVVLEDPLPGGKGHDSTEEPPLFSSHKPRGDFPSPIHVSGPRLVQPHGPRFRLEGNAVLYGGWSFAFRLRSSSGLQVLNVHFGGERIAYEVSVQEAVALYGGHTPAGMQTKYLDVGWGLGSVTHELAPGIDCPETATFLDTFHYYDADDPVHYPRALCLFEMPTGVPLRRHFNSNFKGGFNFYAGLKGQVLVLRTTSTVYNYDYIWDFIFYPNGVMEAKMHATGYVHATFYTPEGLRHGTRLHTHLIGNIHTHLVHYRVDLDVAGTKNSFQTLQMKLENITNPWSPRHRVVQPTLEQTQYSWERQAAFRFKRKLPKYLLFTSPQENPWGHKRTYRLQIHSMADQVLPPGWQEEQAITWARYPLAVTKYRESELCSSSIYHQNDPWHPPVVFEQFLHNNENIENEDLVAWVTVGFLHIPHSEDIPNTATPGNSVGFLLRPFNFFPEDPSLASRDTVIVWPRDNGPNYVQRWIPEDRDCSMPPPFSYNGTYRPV
Where a name gives a salt, the structure may show the parent alone.
Answers are plain numbers, in nM.

| compound | numeric-readout |
| --- | --- |
| CCn1cc(-c2cc(C)c(Cn3cnn(CC(CN)=C(F)F)c3=O)s2)cn1 [Example 159, Trifluoroacetate] | 52000 |

Qu. Give the reported IC50 for this compound. Cn1cc(C#Cc2cccc(-n3cnn(CC(CN)=C(F)F)c3=O)n2)cn1 [Example 160, trifluoroacetate]
Ans. 5090

###

Target: recombinant human MAO-B (monoamine oxidase-B) (Homo sapiens)
Construct: purchased Sigma-Aldrich
Sequence (P27338 1-520): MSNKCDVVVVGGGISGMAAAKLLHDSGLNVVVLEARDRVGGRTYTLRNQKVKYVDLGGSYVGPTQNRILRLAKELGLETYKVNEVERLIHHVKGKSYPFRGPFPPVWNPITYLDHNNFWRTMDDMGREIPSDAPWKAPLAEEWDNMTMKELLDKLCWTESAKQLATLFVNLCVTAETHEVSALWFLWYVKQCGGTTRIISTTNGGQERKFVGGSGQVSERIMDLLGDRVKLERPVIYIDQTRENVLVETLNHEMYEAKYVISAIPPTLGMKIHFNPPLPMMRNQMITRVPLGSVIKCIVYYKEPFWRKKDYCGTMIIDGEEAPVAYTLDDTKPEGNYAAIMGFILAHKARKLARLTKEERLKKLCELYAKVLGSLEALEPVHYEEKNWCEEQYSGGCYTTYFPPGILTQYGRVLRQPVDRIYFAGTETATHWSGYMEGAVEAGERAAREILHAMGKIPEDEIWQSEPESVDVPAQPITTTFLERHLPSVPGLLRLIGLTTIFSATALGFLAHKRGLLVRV
Assay: Activity evaluation on recombinant human MAO-B (Amplex Red/HRP-coupled assay, 1 mM benzylamine substrate)
Assay type: biochemical
Conditions: 1 mM benzylamine, read-out: Inhibitory Activity (IC50, nM) MAO-B
Counter-ions that a name gives are not always drawn.
Answer each item with its documented IC50.
Answers are plain numbers, in nM.

| compound | test-readout | numeric-readout |
| --- | --- | --- |
| NCC(Cn1ncn(-c2ccc(-c3ccc(C(F)(F)F)nc3)c(F)c2)c1=O)=C(F)F [Example 26, Trifluoroacetate] | IC50 | 180 |
| Cc1cc(-c2ccc(Cn3cnn(CC(CN)=C(F)F)c3=O)s2)cc2c1NC(=O)CC2 [Example 134, Trifluoroacetate] | IC50 | 22000 |
| CCn1cc(-c2cnc(-n3cnn(CC(CN)=C(F)F)c3=O)cn2)cn1 [Example 95, Trifluoroacetate] | IC50 | 1300 |

Can you give me IC50 for all of these, one by one?
1. NCC(Cn1ncn(Cc2ccc(-c3ccc4cn[nH]c4c3)s2)c1=O)=C(F)F [Example 127, Trifluoroacetate]
2. CN(C)c1ccc(-c2ccnc(-n3cnn(CC(CN)=C(F)F)c3=O)c2)cn1 [Example 57, Trifluoroacetate]
3. NCC(Cn1ncn(-c2ccc(-c3ccc4c(c3)OCO4)c(F)c2)c1=O)=C(F)F [Example 28, Trifluoroacetate]
4. CS(=O)(=O)c1ccc(-c2cnc(-n3cnn(CC(CN)=C(F)F)c3=O)c(F)c2)cc1 [Example 82, Trifluoroacetate]

Ans.
1. 1070
2. 56400
3. 85
4. 3700

The reported numbers originate from patent US11168073B2.
